# maps each entry to its viability (% of control)
- ASSAY OVERVIEW: High-throughput drug toxicity screening in the BPDCN cell line Cal-1 (AID 1224825);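 also: cells exposed to compounds for 48 h; 100% = DMSO and 0% = bortezomib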
- ASSAY SETUP: Cal-1 BPDCN cell viability, qHTS; at 45.8 µM (top of the series) unless noted
// units = %; emit number, no label

Use the examples below as a reference point.
compound=COc1cc2nc(-c3ccc(N4CCN(C)CC4)cc3)nc(NCCN3CCOCC3)c2cc1OC reported=2.25
compound=CCN(CC)CCOc1ccc(C(=C(Cl)c2ccccc2)c2ccccc2)cc1 reported=50.6
compound=Cc1cccc(Nc2nc(-c3ccncc3)cs2)c1 reported=82.9
compound=Nc1ncnc2c1nc(Cl)n2[C@@H]1O[C@H](CO)[C@@H](O)[C@@H]1O reported=9.15
compound=Cc1ccc(F)c(NC(=O)Nc2ccc(-c3cccc4[nH]nc(N)c34)cc2)c1 reported=1.55

Let us move to another entry and its viability (% of control).
The compound listed as `CC(=O)Nc1ccc([C@H](C)C(=O)Nc2ncc(C(C)C)s2)cc1` shows viability (% of control) equal to 6.1

The values you see were collected from PubChem BioAssay (NCATS).
